These data points were gathered from patent US20230174641A1.

Molecular target: T1, human ACTH 1-39 (human)
T1 construct: unlabelled synthetic peptide (Bachem or American Peptide) as used in SPR and cell assays; also called huACTH 1-39; huACTH(1-39)
T1 peptide: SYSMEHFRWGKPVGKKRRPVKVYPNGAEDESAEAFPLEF
Experiment: SPR ProteOn, antibody immobilised
observed-property: Kd (nM)
Number in nM, nothing else.

INSERT INTO results (binder, observed_property, measured_value) VALUES
  ('Ab4 (antibody, human IgG1, kappa, N297A, V domains shown, rabbit/human chimeric antibody, made in HEK-293) VH: QSVEESGGRLVTPGTPLTLTYTVSGFSLSKHDMIWVRQAPGKGLESIGIIYDDGDTYYANWAKGRFTISKTSTTVDLKIISPTTEDTATYFCVKGVSNIWGPGTLVTVSS VL: DVVMTQTPASVEAAVGGTVTIKCRASQSISVYLAWYQQKAGQPPKLLIYQASKLASGVPSRFKGSGSGTEFTLTISDLECADAATYYCQSYDGSSSSSYGVGFGGGTEVVVKR', 'Kd', 0.27),
  ('Ab5 (antibody, human IgG1, kappa, N297A, V domains shown, rabbit/human chimeric antibody, made in HEK-293) VH: QSVEESGGRLVTPGTPLTLTCTVSGFSLSSYAMSWVRQAPGEGLEWIGIISDSGSTYYASWAKGRFTISKTSTTVDLKITSPTTEDTATYFCAREPEYGYDDYGDWVSDLWGQGTLVTVSS VL: DIVMTQTPASVSEPVGGTVTIKCQASQSISSYLSWYQQKPGQPPKLLIYRASTLASGVPSRFKGSGSGTQFTLTISDLECADAATYYCQSYYYSSSITYRNAFGGGTEVVVKR', 'Kd', 0.064),
  ('Ab6 (antibody, human IgG1, kappa, N297A, V domains shown, rabbit/human chimeric antibody, made in HEK-293) VH: QSVEESGGRLVTPGTPLTLTCTVSGFSLTDYAMSWVRQAPGEGLEWIGIISDSGSTYYASWAKGRFTFSKTSTTVDLRITSPTTEDTATYFCAREPEYGYDEYGDWVSDLWGPGTLVTVSS VL: DIVMTQTPASVEAAVGGAVTIKCQATQSIGNNLAWYQQKPGQPPKLLIYRASTLASGVPSRFKGSGSGTEFTLTISDLECADAATYYCQSYYYSSSITYHNAFGGGTEVVVKR', 'Kd', 0.019);

Attention now shifts to the item below.
For Ab1 (antibody, human IgG1, kappa, N297A, V domains shown, rabbit/human chimeric antibody, made in HEK-293) VH: QSVKESGGRLVTPGTPLTLTCTVSGFSLSNYDMIWVRQAPGKGLESIGMIYDDGDTYYASWAKGRFTISKTSTTVDLKIISPTTEDTATYFCVKGVSNHWGPGTLVTVSS VL: DVVMTQTPASVEAAVGGTVTIKCQASQSISSYLAWYQQKPGQPPKLLIYSASTLASGVPSRFKGRGSGTEFTLTISDLECADAATYYCQSYDGSSGSSYGVGFGGGTEVVVKR the binder record lists Kd as 0.19
